# Test system: post-tetraploid HPT1 cells
# Test method notes: Cell proliferation assay, post-tetraploid HPT1
# Format: cell-based, human
# Setup conditions: Homo sapiens, 120 h; HPT1, five days, geometric average of three experiments
Measured endpoint: IC50 (nM)
Give a bare numeral; the unit nM is implied.

Query: Give IC50 (post-tetraploid HPT1 cells) of the following compound: CCn1cc(-c2ccnc3[nH]c(-c4cccc(CN(C)C)c4)cc23)c(-c2ccc(NC(=O)N(C)C)cc2)n1
Result: 16

Query: Give IC50 (post-tetraploid HPT1 cells) of the following compound: N[C@@H](CSC(c1ccccc1)(c1ccccc1)c1ccccc1)C(=O)O
Result: 2040

Query: Give IC50 (post-tetraploid HPT1 cells) of the following compound: c1nc2nc(Nc3ccc(N4CCOCC4)cc3)nc(NC3CCCCC3)c2[nH]1
Result: 208

Query: Give IC50 (post-tetraploid HPT1 cells) of the following compound: CC[C@@H]1C(=O)N(C)c2cnc(Nc3ccc(C(=O)N[C@H]4CC[C@H](N5CCN(CC6CC6)CC5)CC4)cc3OC)nc2N1C(C)C
Result: 26

Query: Give IC50 (post-tetraploid HPT1 cells) of the following compound: COc1cccc2c1C(=O)c1c(O)c3c(c(O)c1C2=O)C[C@@](O)(C(=O)CO)C[C@@H]3O[C@H]1C[C@H](N)[C@H](O)[C@H](C)O1
Result: 69

Query: Give IC50 (post-tetraploid HPT1 cells) of the following compound: O=C(O)c1ccc(Nc2ncc3c(n2)-c2ccc(Cl)cc2C(c2c(F)cccc2F)=NC3)cc1
Result: 1330

----------
# System: HCT 116 colon carcinoma cell line
# Test method notes: Cell proliferation assay (ATPlite), HCT 116
# Assay type: cell-based, human
# Setup conditions: HCT 116, five days, maximum inhibitory effect, average of three experiments
Outcome label depends on Eff. (%) relative to 80%: at/above gives Yes, below gives No.

Query: Hi, just wondering whether O=C(O)c1ccc(Nc2ncc3c(n2)-c2ccc(Cl)cc2C(c2c(F)cccc2F)=NC3)cc1 shows Eff. (%) of 80% or higher.
Result: Yes

Query: Hi, just wondering whether CC[C@@H]1C(=O)N(C)c2cnc(Nc3ccc(C(=O)N[C@H]4CC[C@H](N5CCN(CC6CC6)CC5)CC4)cc3OC)nc2N1C(C)C shows Eff. (%) of 80% or higher.
Result: Yes

Query: Hi, just wondering whether CCn1cc(-c2ccnc3[nH]c(-c4cccc(CN(C)C)c4)cc23)c(-c2ccc(NC(=O)N(C)C)cc2)n1 shows Eff. (%) of 80% or higher.
Result: No

Query: Hi, just wondering whether Cc1cc(N2CCOCC2)ccc1Nc1nc(NC2CCCCC2)c2[nH]cnc2n1 shows Eff. (%) of 80% or higher.
Result: No

Query: Hi, just wondering whether c1nc2nc(Nc3ccc(N4CCOCC4)cc3)nc(NC3CCCCC3)c2[nH]1 shows Eff. (%) of 80% or higher.
Result: No

Query: Hi, just wondering whether N[C@@H](CSC(c1ccccc1)(c1ccccc1)c1ccccc1)C(=O)O shows Eff. (%) of 80% or higher.
Result: Yes

Query: Hi, just wondering whether COc1cccc2c1C(=O)c1c(O)c3c(c(O)c1C2=O)C[C@@](O)(C(=O)CO)C[C@@H]3O[C@H]1C[C@H](N)[C@H](O)[C@H](C)O1 shows Eff. (%) of 80% or higher.
Result: Yes
